# Substrate: C1O[C@@H]1[C@@H]1CO1
# procedure-details: purified protein
# assay-setup: 5 mM GSH, 0.10 M Tris-HCl pH 7.7, 37 °C, 1 h
metric: Km
Could you give the number and then its unit, please?

human GST M1-1 (Homo sapiens) (protein) PMILGYWDIRGLAHAIRLLLEYTDSSYEEKKYTMGDAPDYDRSQWLNEKFKLGLDFPNLPYLIDGAHKITQSNAILCYIARKHNLCGETEEEKIRVDILENQTMDNHMQLGMICYNPEFEKLKPKYLEELPEKLKLYSEFLGKRPWFAGNKITFVDFLVYDVLDLHRIFEPKCLDAFPNLKDFISRFEGLEKISAYMKSSRFLPRPVFSKMAVWGNK	730 ± 60 µM

Turning to the following protein.
Entry human GST A1-1 (Homo sapiens) (protein) AEKPKLHYFNARGRMESTRWLLAAAGVEFEEKFIKSAEDLDKLRNDGYLMFQQVPMVEIDGMKLVQTRAILNYIASKYNLYGKDIKERALIDMYIEGIADLGEMILLLPVCPPEEKDAKLALIKEKIKNRYFPAFEKVLKSHGQDYLVGNKLSRADIHLVELLYYVEELDSSLISSFPLLKALKTRISNLPTVKKFLQPGSPRKPPMDEKSLEEARKIFRF , Km reported as 300 ± 50 µM

Reference source: paper PMC3850785
